- test.system: murine class II MHC allele E^k on CH27 B cell lymphoma antigen presenting cells (murine)
- protocol.notes: cell-based or functional assay
assay.readout: T cell proliferative response (HT-2 [3H]TdR uptake) at 750 nM

Form field: reported T cell proliferative response (HT-2 [3H]TdR uptake) at 750 nM of Ac-LRMKLPKSAKPIAYLKQATAK-NH2 [Hybrid 5, Ac-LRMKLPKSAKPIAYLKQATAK-NH2]
27.5 thousands of cpm
